# METHOD: in vitro
# TEST_CONTEXT: human, hela cells, % viability
Binary label based on viability at 28.5 h, 10 µM with cut-off 90%: below gives 1 (yes), not below gives 0 (no).

// below: answered compounds
>>> class_label("CN(C)CCNC(=O)c1cccc(-c2cnc3[nH]c(=O)n(Cc4ccc(S(C)(=O)=O)cc4)c3n2)c1 [CBK065069]")
"0 (no)"
>>> class_label("CCNC(=O)N[C@H]1[C@H](O)[C@@H](N(CC)CC)[C@@H]2OC[C@H]1O2 [CBK288816]")
"0 (no)"
>>> class_label("CC(C)C(NS(=O)(=O)c1ccc([N+](=O)[O-])cc1)C(C)C [CBK267656]")
"0 (no)"

Req: I wonder whether CC(c1ccc(F)c(F)c1)N(C)C(=O)CN1CCCc2occc2C1 (stereo not drawn) [CBK304456] has viability at 28.5 h, 10 µM below 90%. Can you tell?
Resp: 1 (yes)

Req: # check: viability at 28.5 h, 10 µM < 90% for COc1ccc(O)c(C(=O)c2cnn(-c3ccccn3)c2)c1 [CBK295141]
Resp: 0 (no)
